- TESTED_TARGET: LNX1_3, Q8TBB1
- Sequence (Q8TBB1 500-596): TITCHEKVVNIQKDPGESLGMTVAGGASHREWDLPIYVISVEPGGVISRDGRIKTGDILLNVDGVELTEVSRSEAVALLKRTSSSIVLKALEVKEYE
- TEST_PROTOCOL: holdup assay
- Set-up: key: below the threshold = too weak to quantify, mostly under pKd 3.1 to 4
- EXPERIMENTAL_CONTEXT: plain residues with an end cap or a label only (N-terminal biotin on a linker: ado-ado)
ASSAY_READOUT: pKd

Solved entries (count: 5):
{"columns": ["BINDER", "ASSAY_READOUT", "REPORTED_MEASUREMENT"],
 "data": [
  ["QSYPSKHDYV [CLDN18, P56856]", "pKd", 3.74],
  ["DFLSTFHIRI [CIB2, O75838]", "pKd", 4.28],
  ["PYPTADHMLA [JUP, P14923]", "pKd", "below the threshold"],
  ["NIAESLESLV [PTPRZ1, P23471]", "pKd", "below the threshold"],
  ["ILRKSTTTTV [PRR16, Q569H4]", "pKd", "below the threshold"]
]}

[in] Please look at this binder and report its pKd: LESTTVGTSV [KARS1, Q15046]
[out] below the threshold

[in] Supply recorded pKd for RSSGGDDFWF [KCNV1, Q6PIU1] here.
[out] below the threshold

[in] State its pKd for this binder: REEPDHSTEV [CCRL2, O00421]
[out] below the threshold

[in] Please report the measured pKd for DGVNEKVSCV [HTR2A, P28223]
[out] below the threshold
